- target_desc: VIM-1 (Pseudomonas aeruginosa (strain ATCC 15692 / DSM 22644 / CIP 104116 / JCM 14847 / LMG 12228 / 1C / PRS 101 / PAO1), UniProt A0A0F7KYQ8)
- test_summary: Enzyme activity: determination of IC50, fluorescence assay with CCF2-FA substrate (VIM-1)
- Type: biochemical
- measurement_conditions: VIM-1 enzyme, CCF2-FA substrate; read-out: VIM-1 IC50
recorded_endpoint: IC50 (nM)
The reply should contain only the number, in nM.

Worked cases, answers included:
NS(=O)(=O)c1cccc(-c2ccc(N3CC(CN4CCCC4)C3)nc2)c1-c1nnn[nH]1    635
CNC1CCc2c(-c3ccc(C(F)(F)F)c(S(N)(=O)=O)c3-c3nnn[nH]3)cccc21 (centres unmarked)    1.21
NCCCc1ccc(-c2ccc(C(F)(F)F)c(S(N)(=O)=O)c2-c2nnn[nH]2)cc1    0.388
NCCc1cccc(-c2ccc(C(F)(F)F)c(S(N)(=O)=O)c2-c2nnn[nH]2)c1    3.27
NS(=O)(=O)c1c(C(F)(F)F)ccc(N2CCCC(CO)C2)c1-c1nnn[nH]1 (centres unmarked)    6.4
NC(=O)c1ccc(-c2ccc(C(F)(F)F)c(S(N)(=O)=O)c2-c2nn[nH]n2)cn1    2.89
NS(=O)(=O)c1c(C(F)(F)F)ccc(N2CCCC(CCO)C2)c1-c1nnn[nH]1 (centres unmarked)    1.31
NS(=O)(=O)c1c(CC2CCNCC2)ccc(-c2ccc(C3CNC3)cc2)c1-c1nnn[nH]1    1.24

Kindly review the next molecule as well.
Can you share its IC50? I mean this molecule: "NS(=O)(=O)c1cccc(-c2cnc3ccc(Cl)nn23)c1-c1nnn[nH]1"
27.4
